These data points were gathered from patent US5128338A.

- assay_target: central receptors for benzodiazepines
- test_description: Displacement of [3H]-RO 151788, rat central nervous system microsomal fractions
- test_parameters: corrected for DMSO, read-out: K0.5, central receptors, [^3 H]--RO 151788
Measured IC50, listed per entry.

For orientation, consider the following solved cases.
CCN(CC)C(=O)CCCn1c(=O)n2cc(-c3ccccc3)nc2c2ccccc21 | 100 µM
CCN(CC)C(=O)Cn1c(=O)n2cc(-c3ccccc3)nc2c2ccccc21 | > 100 µM
CCN(CC)C(=O)Cn1c(=O)n2cc(-c3ccco3)nc2c2ccccc21 | > 100 µM

Please look at the following compound next.
The measured IC50 associated with CCN(CC)C(=O)Cn1c(=O)n2cc(-c3cccc(Cl)c3)nc2c2ccccc21 reads > 100 µM

----------
For peripheral receptors for benzodiazepines ([^3 H]-PK 11195) (Rattus norvegicus), measured pIC50 is reported for the entries below.
Friendly reminder that pIC50 comes from taking -log10 of the concentration in mol/L.

Case CCN(CC)C(=O)Cn1c(=O)n2cc(-c3ccco3)nc2c2ccccc21 [Example 21] , peripheral receptors for benzodiazepines ([^3 H]-PK 11195) (Rattus norvegicus), pIC50 recorded as 6.59

Case CCN(CC)C(=O)Cn1c(=O)n2cc(-c3ccccc3Cl)nc2c2ccccc21 [Example 30] , peripheral receptors for benzodiazepines ([^3 H]-PK 11195) (Rattus norvegicus), pIC50 recorded as 6.55

Case CCN(CC)C(=O)Cn1c(=O)n2cc(-c3ccc(C)cc3)nc2c2ccccc21 [Example 18] , peripheral receptors for benzodiazepines ([^3 H]-PK 11195) (Rattus norvegicus), pIC50 recorded as 6.68

----------
- assay_target: peripheral receptors for benzodiazepines ([^3 H]-R05-4864) (Rattus norvegicus)
readout_label: pIC50
Friendly reminder that pIC50 comes from taking -log10 of the concentration in mol/L.

CCN(CC)C(=O)Cn1c(=O)n2c(C)c(-c3ccccc3)nc2c2ccccc21 [Example 20] | 8.07

Case CCN(CC)C(=O)Cn1c(=O)n2cc(C(N)=O)nc2c2ccccc21 [Example 4] , peripheral receptors for benzodiazepines ([^3 H]-R05-4864) (Rattus norvegicus), pIC50 recorded as 5.22

Case CCOC(=O)COc1ccc2c(=O)cc(-c3ccccc3)oc2c1 [Efloxate, efloxate, reference compound] , peripheral receptors for benzodiazepines ([^3 H]-R05-4864) (Rattus norvegicus), pIC50 recorded as 3.70

Case CCN(CC)C(=O)Cn1c(=O)n2cc(-c3ccsc3)nc2c2ccccc21 [Example 22] , peripheral receptors for benzodiazepines ([^3 H]-R05-4864) (Rattus norvegicus), pIC50 recorded as 6.89

Case CCN(CC)C(=O)Cn1c(=O)n2cc(-c3ccco3)nc2c2ccccc21 [Example 21] , peripheral receptors for benzodiazepines ([^3 H]-R05-4864) (Rattus norvegicus), pIC50 recorded as 6.24

Case CCN(CC)C(=O)Cn1c(=O)n2cc(-c3ccc(C)cc3)nc2c2ccccc21 [Example 18] , peripheral receptors for benzodiazepines ([^3 H]-R05-4864) (Rattus norvegicus), pIC50 recorded as 7.15

Case OCCN(CCO)c1nc(N2CCCCC2)c2nc(N(CCO)CCO)nc(N3CCCCC3)c2n1 [Dipyridamole, dipyridamole, reference compound] , peripheral receptors for benzodiazepines ([^3 H]-R05-4864) (Rattus norvegicus), pIC50 recorded as 6.70

Case CCOC(=O)c1cn2c(=O)[nH]c3ccccc3c2n1 [Example 1] , peripheral receptors for benzodiazepines ([^3 H]-R05-4864) (Rattus norvegicus), pIC50 recorded as 4.21

Case CCc1c(-c2ccccc2)nc2c3ccccc3n(CC(=O)N(CC)CC)c(=O)n12 [Example 25] , peripheral receptors for benzodiazepines ([^3 H]-R05-4864) (Rattus norvegicus), pIC50 recorded as 7.30

Case CCOC(=O)c1cn2c(=O)n(Cc3ccccc3)c3ccccc3c2n1 [Example 10] , peripheral receptors for benzodiazepines ([^3 H]-R05-4864) (Rattus norvegicus), pIC50 recorded as 5.06

Case CCCN(CCC)C(=O)Cn1c(=O)n2c(C)c(-c3cccc(Cl)c3)nc2c2ccccc21 [Example 32] , peripheral receptors for benzodiazepines ([^3 H]-R05-4864) (Rattus norvegicus), pIC50 recorded as 8.51

Case CN1CCN(C(=O)Cn2c(=O)n3cc(-c4ccccc4)nc3c3ccccc32)CC1 [Example 12] , peripheral receptors for benzodiazepines ([^3 H]-R05-4864) (Rattus norvegicus), pIC50 recorded as 4.40
